Tested on: rodent lifetime carcinogenesis bioassay, tumor incidence TD50
Assay: carcinogenic potency in animals, long-term in vivo studies, CPDB compilation (AID 1745844)
Conditions: rat; strain Fischer 344; males; by gavage; site: testis; lesion: interstitial-cell adenoma; dosed 64 weeks; study length 104 weeks
observationType: TD50 (mg/kg/day)
Use mg/kg/day as the unit, but write only the number.

If you can, please state the reported TD50 value of O=C1CCc2ccccc2O1 .
51.7

* * *

Test system: rodent lifetime carcinogenesis bioassay, tumor incidence TD50
Test: carcinogenic potency in animals, long-term in vivo studies, CPDB compilation (AID 1745844)
Settings: mouse; strain B6C3F1; males; in drinking water; site: liver; lesion: hepatocellular carcinoma; dosed 90 weeks; study length 91 weeks
observationType: TD50

If you can, please state the reported TD50 value of C1COCCO1 .
1420 mg/kg/day

* * *

Tested on: rodent lifetime carcinogenesis bioassay, tumor incidence TD50
Experiment: carcinogenic potency in animals, long-term in vivo studies, CPDB compilation (AID 1745844)
Conditions: rat; strain Fischer 344; males; in drinking water; site: liver; lesion: hepatocellular carcinoma; dosed 30 weeks; study length 123 weeks
observationType: TD50

If you can, please state the reported TD50 value of C=C/C=N/O .
50.7 mg/kg/day

* * *

System: rodent lifetime carcinogenesis bioassay, tumor incidence TD50
Assay: carcinogenic potency in animals, long-term in vivo studies, CPDB compilation (AID 1745844)
Details: rat; strain Fischer 344; males; by gavage; site: colon; lesion: several types; types named in the paper; dosed 37 weeks; study length 55 weeks
observationType: TD50

If you can, please state the reported TD50 value of NC(=O)N(CCO)N=O .
0.24 mg/kg/day

* * *

Test system: rodent lifetime carcinogenesis bioassay, tumor incidence TD50
Experiment: carcinogenic potency in animals, long-term in vivo studies, CPDB compilation (AID 1745844)
Settings: rat; strain Osborne-Mendel; males; in feed; site: liver; lesion: hepatocellular adenoma + hepatocellular carcinoma + neoplastic nodule; dosed 80 weeks; study length 112 weeks
observationType: TD50 (mg/kg/day)
Use mg/kg/day as the unit, but write only the number.

# returns recorded TD50 (system: rodent lifetime carcinogenesis bioassay, tumor incidence TD50) for CCOP(=S)(OCC)Oc1ccc([N+](=O)[O-])cc1
17.7

* * *

Tested on: rodent lifetime carcinogenesis bioassay, tumor incidence TD50
Assay: carcinogenic potency in animals, long-term in vivo studies, CPDB compilation (AID 1745844)
Conditions: mouse; strain B6AKF1; males; oral dosing; site: lung; lesion: several types; types named in the paper; dosed 72 weeks; study length 72 weeks
observationType: TD50

If you can, please state the reported TD50 value of CCOC(N)=O .
24.2 mg/kg/day

* * *

Test system: rodent lifetime carcinogenesis bioassay, tumor incidence TD50
Assay: carcinogenic potency in animals, long-term in vivo studies, CPDB compilation (AID 1745844)
Settings: mouse; strain C57BL/6; females; by gavage; site: all sites; lesion: lymphoma; dosed 104 weeks; study length 114 weeks
The source made the active and inactive calls. No rule for the calls is given here.
observationType: TD50

# returns recorded TD50 (system: rodent lifetime carcinogenesis bioassay, tumor incidence TD50) for CC(C)C(C(=O)OC(C#N)c1cccc(Oc2ccccc2)c1)c1ccc(Cl)cc1 (stereo unspecified)
384 mg/kg/day (inactive)

* * *

System: rodent lifetime carcinogenesis bioassay, tumor incidence TD50
Test: carcinogenic potency in animals, long-term in vivo studies, CPDB compilation (AID 1745844)
Settings: rat; strain Sprague-Dawley; males; in feed; site: liver; lesion: several types; types named in the paper; dosed 104 weeks; study length 104 weeks
observationType: TD50

Some entries whose results are on file:
Clc1cccc(-c2cc(Cl)cc(Cl)c2)c1: 872 mg/kg/day
Clc1ccc(-c2ccc(Cl)c(Cl)c2Cl)c(Cl)c1Cl: 20 mg/kg/day
O=c1ccc2ccccc2o1: 365 mg/kg/day

Could you now consider this next molecule?
If you can, please state the reported TD50 value of Clc1cccc(-c2ccc(Cl)c(Cl)c2Cl)c1Cl .
55.1 mg/kg/day
